Taken from patent US11286234B2.

Field: Emax. Provide a value for each of the compounds that follow.
target: FPR2 (Homo sapiens, UniProt P25090); construct: expressed in transfected cells; assay: Compound-induced calcium activity (FLIPR Tetra) in CHO-Gα16 cells stably expressing FPR2; assay type: cell-based; conditions: efficacy value in brackets, read-out: FPR2 Ga16-CHO (% eff)
Sequence (P25090 whole entry): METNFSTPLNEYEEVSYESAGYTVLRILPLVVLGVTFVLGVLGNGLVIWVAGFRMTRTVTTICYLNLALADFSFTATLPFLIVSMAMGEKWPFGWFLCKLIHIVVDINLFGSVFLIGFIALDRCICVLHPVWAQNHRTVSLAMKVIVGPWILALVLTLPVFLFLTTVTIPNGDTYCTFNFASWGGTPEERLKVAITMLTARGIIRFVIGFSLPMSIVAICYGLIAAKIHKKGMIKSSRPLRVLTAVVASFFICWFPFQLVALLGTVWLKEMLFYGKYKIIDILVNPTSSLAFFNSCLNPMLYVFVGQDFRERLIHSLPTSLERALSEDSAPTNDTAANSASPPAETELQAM
Give bare numbers, in %.

Some compounds with recorded Emax:
* CC(C)CC(CNC(=O)Nc1ccc(Br)cc1)C(=O)NCC(=O)OC(C)(C)C (stereo not shown) | 18
* CC(CNC(=O)Nc1ccc(Br)cc1)C(=O)O (stereo not shown) | 62
* CC(C)C(CNC(=O)Nc1ccc(Br)cc1)C(=O)O (stereo not shown) | 83
* CC(C)CC(CCNC(=O)Nc1ccc(Br)cc1)S(=O)(=O)O (stereo not shown) | 89
* CC(C)CC(CNC(=O)CNC(=O)Nc1ccc(Br)cc1)C(=O)O (stereo not shown) | 77
* COC(=O)C(CNC(=O)Nc1ccc(OC)cc1)CC(C)C (stereo not shown) | 42

Each compound below has a reported value. Please supply its Emax.
1. CC(C)CC(CNC(=O)Nc1ccc(Br)cc1)C(=O)N(C)CC(=O)O (stereo not shown)
2. CC(C)CC(CNC(=O)Nc1ccc(OC(F)(F)F)cc1)C(=O)O (stereo not shown)
3. COC(=O)C(CNC(=O)Nc1ccc(Cl)cc1)CC(C)C (stereo not shown)

1: 104; 2: 40; 3: 95

Each compound below has a reported value. Please supply its Emax.
1. COc1ccc(NC(=O)NCC(CC(C)C)C(=O)O)cc1 (stereo not shown)
2. COC(=O)C(CNC(=O)Nc1ccc(Br)cc1)CC(C)C (stereo not shown)
3. COC(=O)C(CNC(=O)Nc1ccc(Br)cc1F)CC(C)C (stereo not shown)

1: 56; 2: 47; 3: 98
